Assayed system: GABA-A receptor; anion channel (Rattus norvegicus) (UniProt O09028+P15431+P18506+P18508+P19969+P20236+P23574+P23576+P28471+P28473+P30191+P62813+P63079+P63138+Q91ZM7+Q9ES14)
Assay summary: Relative binding in the presence and absence of GABA, (IC50-GABA /IC50+GABA)
Format: protein-complex assay
Attribute measured: GABA shift
Give the figure only, with no unit attached.

Solved cases (3 shown):
| Structure as smiles | GABA shift |
| --- | --- |
| Nc1ccccc1NC(=O)C1=C(O)CCn2c1nc1ccccc12 | 1.5 |
| O=C(Nc1ccc(O)cc1)C1=C(O)CCn2c1nc1ccccc12 | 1.5 |
| O=C1CCN2C(=C1C(=O)Nc1ccccc1)Nc1ccccc12 | 1.5 |

Data request: I am curious: what GABA shift value has been reported for CN(C)c1ccc(NC(=O)C2=C3N(C)c4ccccc4N3CCC2=O)cc1 ?
Data returned: 1.8
